- Tested on: HCT-116
- Experimental Details: Antiproliferative activity against human HCT-116 cells assessed as inhibition of cell proliferation incubated for 48 hrs by MTT assay
- Assay type: functional, cell-based
- Condition Description: HCT-116, 48 h
Quantity Name: pIC50
When answering, recall that pIC50 equals minus log10 of the concentration in mol/L, and write that number alone.

Take a look at these entries with their results.
[[record]]
smiles_str = "CN(c1ccc2c(ccn2C)c1)c1nc(N2CCC(O)CC2)nc2sccc12"
quantity_name = "pIC50"
val = 7.71

[[record]]
smiles_str = "CN(c1ccc2c(ccn2Cc2ccccc2)c1)c1nc(Cl)nc2sccc12"
quantity_name = "pIC50"
val = 6.08

[[record]]
smiles_str = "CN(c1ccc2c(ccn2C)c1)c1nc(Cl)nc2ccsc12"
quantity_name = "pIC50"
val = 8.50

[[record]]
smiles_str = "CN(c1ccc2c(ccn2C)c1)c1nc(N2CCC(Cl)CC2)nc2sccc12"
quantity_name = "pIC50"
val = 7.53

[[record]]
smiles_str = "CCn1ccc2cc(N(C)c3nc(Cl)nc4sccc34)ccc21"
quantity_name = "pIC50"
val = 7.27


Task: I am curious: what pIC50 value has been reported for `COc1ccc(/C=C\c2cc(OC)c(OC)c(OC)c2)cc1O` ?
Output: 8.13
